Test system: AI-2 activity of O109
Experiment: AI-2 bioluminescence indicator assay, APEC O109
Assay type: cell-based, avian pathogenic E. coli (APEC) O109
Settings: Escherichia coli, read-out: % Inhibtion of AI-2 activity, serotype O109, bioluminescence vs DMSO treated control
inhibition at 100 µM values for the molecules below.
READOUT_NAME: inhibition at 100 µM (%)

INSERT INTO results (chemical_string, uom, observed) VALUES
  ('O=C(CCN1CCN(c2ccccc2F)CC1)Nc1ccc(Br)cc1', '%', 67),
  ('NC(=O)c1ccccc1Nc1cccc(C(F)(F)F)c1', '%', 0),
  ('Cc1ccc(CN2CCN(CCCc3ccccc3)CC2)cc1', '%', 69),
  ('O=[N+]([O-])c1cccc(S(=O)(=O)Nc2ccc(Br)cc2)c1', '%', 60),
  ('CS/C(N)=N/N=C/c1cc(C)ccc1O', '%', 67),
  ('COCCN1CCC(CN(Cc2ccncc2)Cc2ccccc2Cl)CC1', '%', 65);

---

System: APEC O78 in HD-11 cells
Experiment: Intracellular survival assay, APEC O78 in HD-11 cells
Type: cell-based, avian pathogenic E. coli (APEC) O78
Details: MOI 100, 100 µM, 6 h, vs DMSO treated control
READOUT_NAME: reduction of intracellular survival of APEC O78

INSERT INTO results (compound, observed) VALUES
  ('Fc1ccc(CN2CCCN(Cc3nc(-c4ccc(C(F)(F)F)cc4)no3)CC2)cc1 [C9]', '~ 4 logs'),
  ('CS/C(N)=N/N=C/c1cc(C)ccc1O [C4]', 'up to 1 logs'),
  ('OCCC1CN(C2CCN(c3ccccc3)CC2)CCN1CCCc1ccccc1 (stereo not shown) [C10]', '~ 4 logs'),
  ('CCc1ccccc1Nc1nc(-c2c(C)nc3ccccn23)cs1 [C8]', 'up to 1 logs');

---

inhibition at 100 µM values for the compounds below.
Tested on: AI-2 activity of O18
Assay: AI-2 bioluminescence indicator assay, APEC O18
Format: cell-based, avian pathogenic E. coli (APEC) O18
Details: Escherichia coli, read-out: % Inhibtion of AI-2 activity, serotype O18, bioluminescence vs DMSO treated control
READOUT_NAME: inhibition at 100 µM (%)

INSERT INTO measurements (compound, bound_operator, observed) VALUES
  ('NC(=O)c1ccccc1Nc1cccc(C(F)(F)F)c1', '=', 8),
  ('CS/C(N)=N/N=C/c1cc(C)ccc1O', '=', 54),
  ('O=C(CCN1CCN(c2ccccc2F)CC1)Nc1ccc(Br)cc1', '=', 48),
  ('O=[N+]([O-])c1cccc(S(=O)(=O)Nc2ccc(Br)cc2)c1', '≥', 75),
  ('Fc1ccc(CN2CCCN(Cc3nc(-c4ccc(C(F)(F)F)cc4)no3)CC2)cc1', '=', 14),
  ('OCCC1CN(C2CCN(c3ccccc3)CC2)CCN1CCCc1ccccc1 (stereo not shown)', '=', 35),
  ('COCCN1CCC(CN(Cc2ccncc2)Cc2ccccc2Cl)CC1', '=', 37),
  ('CCc1ccccc1Nc1nc(-c2c(C)nc3ccccn23)cs1', '=', 54),
  ('Cc1ccc(CN2CCN(CCCc3ccccc3)CC2)cc1', '=', 61),
  ('Cc1ccccc1N1CCN(C2CCCN(C(=O)c3ccc(F)c(Cl)c3)C2)CC1 (stereo not shown)', '=', 43);
